Property: Ragweed plant response rating; scope: individual compounds
- System: ragweed (common ragweed, Ambrosia elatior)
- TEST METHOD NOTES: Test A postemergence
- Format: in vivo
- REPORTED CONDITIONS: 125 g ai/ha, postemergence; visual injury rating on 0 to 100 scale (0 no effect, 100 complete control), approx. 10 d
- Text: […]
Form rule: numeric answer, no unit written next to it.

* Cc1ccc(C2CNC(=O)C2C(=O)Nc2ccccc2F)c(F)c1 (racemic) | 0
* O=C1NCC(c2ccc(F)c(F)c2)C1C(=O)Nc1ccc(F)cc1Cl (centres unmarked) | 0
* CN1CC(c2ccc(C(F)(F)F)cc2)C(C(=S)Nc2ccccc2F)C1=O (centres unmarked) | 20
* CN1CC(c2ccc(C(F)(F)F)cc2F)C(C(=O)Nc2ccccc2S(C)(=O)=O)C1=O (centres unmarked) | 50
* COc1cccc(C2CNC(=O)C2C(=O)Nc2cccc(F)c2F)c1 (racemic) | 0

Q: Report Ragweed plant response rating for COc1c(F)ccc(NC(=O)C2C(=O)N(C)CC2c2cccc(OC(F)(F)C(F)F)c2)c1F (centres unmarked)
A: 0

Q: Report Ragweed plant response rating for Cc1ccc(C2CNC(=O)C2C(=O)Nc2ccccc2S(C)(=O)=O)c(F)c1 (racemic)
A: 0

Q: Report Ragweed plant response rating for O=C1NCC(c2ccc(C(F)(F)F)c(F)c2)C1C(=O)Nc1ccc(F)cc1F (racemic)
A: 0

Q: Report Ragweed plant response rating for Cc1cc(C2CN(C)C(=O)C2C(=O)Nc2ccc(F)cc2F)ccc1F (centres unmarked)
A: 30

Q: Report Ragweed plant response rating for CN1CC(c2ccc(Cl)cc2)C(C(=O)Nc2ccccc2F)C1=O (centres unmarked)
A: 0

Q: Report Ragweed plant response rating for O=C1NCC(c2ccc(Br)cc2)C1C(=O)Nc1cccc(F)c1 (centres unmarked)
A: 0

---

- Tested on: corn (Zea mays)
- TEST METHOD NOTES: Test A postemergence
- Format: in vivo
- REPORTED CONDITIONS: Zea mays, post-emergence, 240 h, 125 g ai/ha, Postemergence; visual injury after approximately 10 d; 0 to 100 scale where 0 is no effect and 100 is complete control
Property: Corn plant response rating (crop injury, 0 = no effect, 100 = complete kill) at 125 g/ha; scope: individual molecules
Write down the numeric answer in % and omit the unit.

Example entries begin here.
• CC(=O)Oc1ccc(F)c(NC(=O)[C@H]2C(=O)N(C)C[C@@H]2c2cc(F)cc(F)c2)c1 = 0
• Cc1cc([C@H]2CN(C)C(=O)[C@@H]2C(=O)Nc2ccc(F)cc2F)ccc1Cl = 40
• CN1CC[C@H](c2cccc(C(F)(F)F)c2)[C@@H](C(=O)Nc2ccccc2S(C)(=O)=O)C1=O = 0
• CCOc1cccc([C@H]2CNC(=O)[C@@H]2C(=O)Nc2ccccc2F)c1 = 0
• Cc1cc([C@H]2CN(C)C(=O)[C@@H]2C(=O)Nc2ccccc2F)cc(C)c1Br = 0

Now let's try a different one.
Q: Please look at Cc1ccc([C@H]2CNC(=O)[C@@H]2C(=O)Nc2ccccc2F)cc1C and tell me its recorded Corn plant response rating (crop injury, 0 = no effect, 100 = complete kill) at 125 g/ha on corn (Zea mays).
A: 0

---

- Tested on: sedge, umbrella (small-flower umbrella sedge, Cyperus difformis)
- TEST METHOD NOTES: Test B flooded paddy test
- Type: in vivo
- REPORTED CONDITIONS: Flood, 250 g ai/ha; 0 to 100 scale where 0 is no effect and 100 is complete control; 13 to 15 d
ENDPOINT: Plant response rating, Sedge, Umbrella
Form rule: numeric answer, no unit written next to it.

- O=C1NCC(c2ccc(C(F)(F)F)c(F)c2)C1C(=O)Nc1ccc(F)cc1F (racemic) [Compound 522]: 0
- CN1CC(c2ccc(C(F)(F)F)cc2)C(C(=O)Nc2ccccc2S(C)(=O)=O)C1=O (stereo not drawn) [Compound 624]: 0

Q: Report Plant response rating, Sedge, Umbrella for CN1CC(c2c(F)cccc2F)C(C(=O)Nc2cccc(F)c2F)C1=O (stereo not drawn) [Compound 547]
A: 0
